TEST_DETAILS: acute toxicity in the mouse
DETAILS: in vivo, I.V. (intravenous)
Structures can show the parent of a compound that is named as a salt.
ENDPOINT: LD50

Q: # LD50 lookup, item COc1cc(S(N)(=O)=O)cc(C(=O)NCC2CCCN2CC2CC2)c1OC (centres unmarked) [Example 4]
Result: 60 to 64.5 mg/kg

Q: And for CCS(=O)(=O)c1cc(C(=O)NCC2CCCN2CC2=CCCCC2)c(OC)cc1N (centres unmarked) [Example 11] ?
Result: 29.5 to 31.8 mg/kg

Q: Same lookup for COc1ccc(S(N)(=O)=O)cc1C(=O)NCC1CCCN1CC1=CCCCC1 (centres unmarked) [Example 14] , please.
Result: 82.5 to 85.5 mg/kg

Q: Quick one: CNS(=O)(=O)c1cc(OC)c(OC)c(C(=O)NCC2CCCN2CC2=CCCCC2)c1 (centres unmarked) [Example 12]
Result: 57.8 to 62 mg/kg

Q: Try the compound CCS(=O)(=O)c1cc(OC)c(OC)c(C(=O)NCC2CCCN2CC2CC2)c1 (centres unmarked) [Example 16, hydrochloride]
Result: 92.9 to 97.2 mg/kg
